# Test system: U-251
# testDetails: NCI tumour cell line growth inhibition, 48 h
The source made the active and inactive calls. Cut-off read from the data, not from the text of the source: active = GI50 up to about 1.1 µM and inactive = higher.
Known GI50 of a selection of compounds

>  <compound>
COC(=O)n1c(=O)n(-c2ccccc2)c(=O)n1C(=O)OC

>  <studySystem>
U-251

>  <GI50>
> 100 µM (inactive)

$$$$
>  <compound>
O=c1c(-c2ccccc2)c2oc(c1-c1ccccc1)CSCc1cccc(c1)CSC2

>  <studySystem>
U-251

>  <GI50>
31 µM (inactive)

$$$$
>  <compound>
c1ccc2c(NCCCCCCCCNc3cccc4ccccc34)cccc2c1

>  <studySystem>
U-251

>  <GI50>
63.2 µM (inactive)

$$$$
>  <compound>
O=C1c2cccc(O)c2C(=O)c2c(OC3OC(CO)C(O)C(O)C3O)cccc21 (stereo not given)

>  <studySystem>
U-251

>  <GI50>
25.2 µM (inactive)

$$$$
>  <compound>
CCCNc1[nH]c(C(C)=O)c(N)c1C(=S)Nc1ccccc1

>  <studySystem>
U-251

>  <GI50>
31.7 µM (inactive)

$$$$
>  <compound>
CCc1nc2ccccc2c(=O)n1/N=C(\N=N\c1ccc(Cl)cc1)c1ccccc1Cl

>  <studySystem>
U-251

>  <GI50>
49.7 µM (inactive)

$$$$
>  <compound>
CC(=O)Oc1ccccc1[C@H]1CC(=O)C[C@H](c2ccccc2OC(C)=O)C12C(=O)c1ccccc1C2=O

>  <studySystem>
U-251

>  <GI50>
38.9 µM (inactive)

$$$$
>  <compound>
Cc1ccc(S(=O)(=O)NNC2(NS(=O)(=O)c3ccc(Cl)cc3)C(Cl)=C(Cl)C(=O)c3ccccc32)cc1 (stereo not given)

>  <studySystem>
U-251

>  <GI50>
21.8 µM (inactive)

$$$$
>  <compound>
CN1C(=O)c2c(ccc3c2OCO3)C2C(O)Cc3cc4c(cc3C21)OCO4 (stereo not given)

>  <studySystem>
U-251

>  <GI50>
4.29 µM (inactive)

$$$$
>  <compound>
Nc1nc2c(ncn2CCCC(c2ccccc2)P(=O)(O)O)c(=O)[nH]1 (stereo not given)

>  <studySystem>
U-251

>  <GI50>
> 100 µM (inactive)

$$$$
